# ASSAYED TARGET: 5HT-Transporter (Homo sapiens)
# Construct: Human platelet membranes (Oceanix Biosciences Corporation, Hanover, Md., USA) were thawed; tissue Oceanix Biosciences Corporation, Hanover, Md., USA; host or cells: human platelet membranes
# Sequence (P31645 whole entry): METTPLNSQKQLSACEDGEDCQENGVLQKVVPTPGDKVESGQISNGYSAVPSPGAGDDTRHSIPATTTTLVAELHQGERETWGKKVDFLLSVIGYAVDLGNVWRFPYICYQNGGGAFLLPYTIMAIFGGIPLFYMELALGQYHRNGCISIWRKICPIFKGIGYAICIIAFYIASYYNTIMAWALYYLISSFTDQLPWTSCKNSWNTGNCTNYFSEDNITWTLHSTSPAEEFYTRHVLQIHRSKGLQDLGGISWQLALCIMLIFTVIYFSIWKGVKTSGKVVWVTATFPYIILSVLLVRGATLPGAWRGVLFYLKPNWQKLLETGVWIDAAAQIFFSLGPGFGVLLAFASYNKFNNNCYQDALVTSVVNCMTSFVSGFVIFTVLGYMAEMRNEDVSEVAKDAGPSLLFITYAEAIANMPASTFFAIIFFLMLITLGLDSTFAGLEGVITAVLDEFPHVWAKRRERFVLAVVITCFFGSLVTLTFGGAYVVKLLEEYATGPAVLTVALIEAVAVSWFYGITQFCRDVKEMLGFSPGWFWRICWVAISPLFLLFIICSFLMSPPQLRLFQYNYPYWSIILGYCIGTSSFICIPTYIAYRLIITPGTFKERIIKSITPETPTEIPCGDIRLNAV
# ASSAY REMARKS: Binding experiment for the 5HT-transporter ([3H]paroxetine, human platelet membranes)
# CONDITION SET: [3H]paroxetine 0.5 nM, read-out: h-5HTT pIC50 (converted)
ASSAY ENDPOINT: IC50 (µM)

{"columns": ["STRUCTURE SMILES", "ASSAY ENDPOINT", "NUMERIC VALUE"],
 "data": [
  ["C/C(=C\\c1ccccc1)CN1CCC(Nc2nccn(-c3ccc(N4CCC(N5CCCC5)CC4)cc3)c2=O)CC1", "IC50", 0.631]
]}

I = C/C(=C\c1ccccc1)CN1CCC(Nc2nccn(CC(=O)N(C)CCN(C)Cc3ccccc3)c2=O)CC1
II = CCOC(=O)N1CCN(Cc2ccc(-n3ccnc(NC4CCN(C/C(C)=C/c5ccccc5)CC4)c3=O)cc2)CC1
III = CCN(CC)c1cccc(-n2ccnc(NC3CCN(C/C(C)=C/c4ccccc4)CC3)c2=O)c1
IV = C/C(=C\c1ccccc1)CN1CCC(Nc2nccn(CCCN(C)S(=O)(=O)c3ccccc3)c2=O)CC1
Ascending sort, IC50. Return the labels ranked in the requested order, please. IV, III, I, II
(IV: 0.501 µM, III: 1 µM, I: 3.98 µM, II: 6.31 µM)

---

# ASSAYED TARGET: hα2C receptor (Homo sapiens)
# Construct: expressed in transfected cells; host or cells: CHO cells, stably transfected; membrane preparation
# Sequence (P18825 1-462): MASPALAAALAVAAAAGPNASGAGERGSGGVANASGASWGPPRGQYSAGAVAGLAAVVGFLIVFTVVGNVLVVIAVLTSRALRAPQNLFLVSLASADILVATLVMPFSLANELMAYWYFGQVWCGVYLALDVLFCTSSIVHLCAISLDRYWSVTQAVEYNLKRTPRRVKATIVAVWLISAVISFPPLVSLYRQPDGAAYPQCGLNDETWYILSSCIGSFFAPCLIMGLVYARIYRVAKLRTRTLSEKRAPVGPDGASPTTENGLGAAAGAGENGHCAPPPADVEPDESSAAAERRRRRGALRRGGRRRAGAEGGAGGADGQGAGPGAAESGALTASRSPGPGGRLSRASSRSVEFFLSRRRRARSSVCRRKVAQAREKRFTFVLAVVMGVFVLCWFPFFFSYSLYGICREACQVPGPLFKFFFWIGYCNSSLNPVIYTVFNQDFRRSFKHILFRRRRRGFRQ
# ASSAY REMARKS: Radioligand binding experiment for α2C-adrenoceptor ([3H]raulwolscine, CHO cell membranes)
# CONDITION SET: [3H]raulwolscine binding, read-out: h-α2C pIC50 (converted)
ASSAY ENDPOINT: IC50 (nM)

P = C/C(=C\c1ccccc1)CN1CCC(Nc2nccn(Cc3ccco3)c2=O)CC1 [6-2]
Q = C/C(=C\c1ccccc1)CN1CCC(Nc2nccn(-c3ccc(C(=O)NCc4ccc(F)cc4)cc3)c2=O)CC1 [1-56]
R = C/C(=C\c1ccccc1)CN1CCC(Nc2nccn(CCCN(C)C)c2=O)CC1 [1-15]
S = C/C(=C\c1ccccc1)CN1CCC(Nc2nccn(-c3cccc(CN4CCCCC4)c3)c2=O)CC1 [2-9]
Rank the 4 molecules shown above by IC50, smallest number first. Return the labels ranked in the requested order, please. S, R, Q, P
